- System: XF 498 CNS
- experiment_description: NCI tumour cell line growth inhibition, 48 h
Here, each record is paired with measured TGI data.

INSERT INTO assay_data (compound, assay_target, measured) VALUES
  ('Nc1c(-c2ccc(Cl)cc2)[n+]([O-])c2ccccc2[n+]1[O-]', 'XF 498 CNS', '> 100 µM');

Measured TGI (XF 498 CNS), entry O=C(O)C(CS)Nc1c2ccccc2nc2ccccc12 (centres undefined) : > 100 µM

GET /values?item= CC(=O)OCC1OC(NC(=S)N/N=C2\CC(c3ccccc3)Oc3ccccc32)C(OC(C)=O)C(OC(C)=O)C1OC(C)=O (centres undefined) &system= XF 498 CNS returns TGI: > 100 µM

Form field TGI for item NC(=O)COC(=O)c1c(Cl)nc2sccn12 on XF 498 CNS: > 100 µM

* * *

- System: UACC-62 melanoma
- experiment_description: NCI tumour cell line growth inhibition, 48 h
# key: entry, value: TGI

Example cases with answers are listed next.
INSERT INTO assay_data (compound, outcome_measure, measured) VALUES
  ('c1ccc(-c2cn3c(nc4ccccc43)c(-c3ccccc3)n2)cc1', 'TGI', '> 55.6 µM'),
  ('CCN(CC)CCn1nc(N)c2nc3ccccc3nc21', 'TGI', '> 100 µM'),
  ('Cc1ccc(/C(Cl)=C/C=C(C#N)C#N)cc1', 'TGI', '15.7 µM'),
  ('O=C1c2cccc([N+](=O)[O-])c2C(=O)N1c1ncn[nH]1', 'TGI', '> 100 µM'),
  ('CCCC(=O)OCC1OC(n2cnc3c(=S)nc[nH]c32)C(OC(=O)CCC)C1OC(=O)CCC (stereo not given)', 'TGI', '> 100 µM'),
  ('COc1ccc2nc3c(C(=O)NCCN(C)C)cccc3nc2c1', 'TGI', '21.2 µM'),
  ('COc1cc(Nc2nc3ccccc3nc2-c2cccs2)cc(OC)c1OC', 'TGI', '> 100 µM'),
  ('CCC[CH2][Sn]1([CH2]CCC)[O]C(=O)CN=Cc2c(ccc3ccccc23)[O]1', 'TGI', '0.558 µM'),
  ('CCOC(=O)N(NC(=O)NC(C)C)c1ccccc1', 'TGI', '> 100 µM');

Measured TGI of O=C(Nc1ccncc1)C(=O)c1cn(S(=O)(=O)c2cccc(F)c2)c2ccccc12 : > 100 µM

* * *

Reported values of TGI for individual entries
- System: HT29 colon
- experiment_description: NCI tumour cell line growth inhibition, 48 h

Here's what some known entries look like.
INSERT INTO assay_data (molecule, measured) VALUES
  ('CC(=O)Oc1cc(Cl)c(C)c2c1[C@H]1CC[C@]3(C)[C@@H](OC(C)=O)CC[C@H]3[C@@H]1CC2', '> 100 µM'),
  ('CC1(C)C2CCC(CN)(C2)C1N (stereo unspecified)', '> 100 µM'),
  ('O=C(O)CCC(=O)Nc1ccc2ccccc2c1', '> 100 µM');

Item: O=C(CC1(O)C(=O)Nc2ccccc21)c1ccncc1 (stereo unspecified) | TGI: > 100 µM

For COc1ccc2c(c1)C(=O)Cc1ccccc1CC2 the molecule record lists TGI as > 100 µM

Measured TGI of C=C(C[C@](O)(C(=O)/C=C/c1ccc(Cl)cc1)C(=O)OC)c1ccccc1 : 4.65 µM

// NC12CC3CC(C1)CC(C(=O)O)(C3)C2 : TGI value = > 100 µM

// field: TGI; key: O=C1CN(C(=O)C2CCCN2C(=O)C2CCCN2)C(=O)CN1 (stereo unspecified) ; value = > 100 µM

Measured TGI of N#Cc1c(=O)n(-c2ccccc2)c(O)c2c(N)n[nH]c12 : > 100 µM

TGI measured on c1ccc(-c2nc3ccccc3n3c(CN4CCCCC4)nnc23)cc1 = > 100 µM

The molecule listed as Ic1ccc2c(c1)N(c1ccccc1)c1cc(N=c3ccc4nc5ccc(I)cc5n(-c5ccccc5)c-4c3)ccc1N2 has a reported TGI of 73.1 µM

In plain terms, CCOC(=O)CCCNC(=O)CCCCC(=O)N(C)C has a documented TGI of > 100 µM

Summary for this molecule, O=C(O)C1CCCN(CCc2c[nH]c3ccccc23)C1 (stereo unspecified) : TGI is > 100 µM

The reported value for COc1ccc(C[C@@H](CO)NC2=C(C#N)CCC2)cc1 in terms of TGI is > 100 µM

Entry under test: O=c1[nH]nc(-c2ccccc2)n1/N=C/c1ccc([N+](=O)[O-])cc1 . Its TGI was > 100 µM

Item: COC(=O)C1=C(O)C(C(=O)OC)[C@]2(O)[C@H](C(=O)OC)[C@H]1C[C@@H](c1ccc(Cl)cc1)[C@H]2C(=O)OC (stereo partly specified) | TGI: 32 µM
